assay: Volume of distribution at steady state in rat at 2 umol/kg, iv and 2 umol/kg, po; type: ADME, organism-based; conditions: in vivo, read-out: Vdss
Returns: string. Value is met if measured Vd is below 0.2 L/kg, and not met if it is greater than or equal to it.

O=C(N[C@@H](Cc1ccc(F)c(Br)c1)C(=O)O)c1ccc(Cl)cc1NS(=O)(=O)c1cccc2nccnc12    met

Prompt line: Please determine if `O=C(N[C@@H](Cc1ccc(F)c(Br)c1)C(=O)O)c1cc(Cl)c(Cl)cc1NS(=O)(=O)c1cccc2nccnc12` is below 0.2 L/kg in terms of Vd.
Response line: met

Prompt line: Another compound to check: `O=C(N[C@@H](Cc1ccc(F)c(Br)c1)C(=O)O)c1ccc(I)cc1NS(=O)(=O)c1cccc2nsnc12`
Response line: not met

Prompt line: Another compound to check: `O=C(N[C@@H](Cc1ccc(F)c(Br)c1)C(=O)O)c1ccc(Cl)cc1NS(=O)(=O)c1cccc2nsnc12`
Response line: met

* * *

assay: Apparent permeability from apical to basolateral side in human Caco-2 cells; assay type: ADME, cell-based
assay metric: Papp A→B (×10⁻⁶ cm/s)
Enter your answer as a number in ×10⁻⁶ cm/s; do not include the unit.

Solved cases (3 shown):
O=C(N[C@@H](Cc1ccc(F)c(Br)c1)C(=O)O)c1ccc(Cl)cc1NS(=O)(=O)c1cccc2nccnc12    0.04
O=C(N[C@@H](Cc1ccc(Cl)c(Br)c1)C(=O)O)c1ccc(Br)cc1NS(=O)(=O)c1cccc2nsnc12    0.1
O=C(N[C@@H](Cc1ccc(F)c(Br)c1)C(=O)O)c1ccc(Cl)cc1NS(=O)(=O)c1cccc2nsnc12    0.04

Prompt line: Query (compound): `O=C(N[C@@H](Cc1ccc(F)c(Br)c1)C(=O)O)c1ccc(Br)cc1NS(=O)(=O)c1cccc2nsnc12` ; field requested: Papp A→B
Response line: 0.05

* * *

assay: Plasma clearance in rat at 2 umol/kg, iv; assay type: ADME, organism-based
Reported clearance is given for each of the following compounds.
Enter your answer as a number in mL/min/kg; do not include the unit.

Solved cases (3 shown):
O=C(N[C@@H](Cc1ccc(F)c(Br)c1)C(=O)O)c1cc(Cl)c(Cl)cc1NS(=O)(=O)c1cccc2nccnc12    2
O=C(N[C@@H](Cc1ccc(F)c(Br)c1)C(=O)O)c1ccc(Cl)cc1NS(=O)(=O)c1cccc2nccnc12    4.1
O=C(N[C@@H](Cc1ccc(F)c(Br)c1)C(=O)O)c1cc(Cl)c(Cl)cc1NS(=O)(=O)c1cccc2nsnc12    2.6

Prompt line: Query (compound): `O=C(N[C@@H](Cc1ccc(F)c(Br)c1)C(=O)O)c1ccc(I)cc1NS(=O)(=O)c1cccc2nsnc12` ; field requested: clearance
Response line: 3.1

Prompt line: Another compound to check: `O=C(N[C@@H](Cc1ccc(F)c(Br)c1)C(=O)O)c1ccc(Cl)cc1NS(=O)(=O)c1cccc2nsnc12`
Response line: 3.1

* * *

Reported bioavailability is given for each of the following molecules.
test: Oral bioavailability in rat at 2 umol/kg; type: ADME, organism-based; conditions: in vivo
Hey, just the number and the unit after it is fine.

Solved cases (4 shown):
O=C(N[C@@H](Cc1ccc(F)c(Br)c1)C(=O)O)c1ccc(I)cc1NS(=O)(=O)c1cccc2nsnc12    14%
O=C(N[C@@H](Cc1ccc(F)c(Br)c1)C(=O)O)c1cc(Cl)c(Cl)cc1NS(=O)(=O)c1cccc2nccnc12    9%
O=C(N[C@@H](Cc1ccc(F)c(Br)c1)C(=O)O)c1ccc(Cl)cc1NS(=O)(=O)c1cccc2nsnc12    11%
O=C(N[C@@H](Cc1ccc(F)c(Br)c1)C(=O)O)c1cc(Cl)c(Cl)cc1NS(=O)(=O)c1cccc2nsnc12    21%

Next:
Prompt line: Query (molecule): `O=C(N[C@@H](Cc1ccc(F)c(Br)c1)C(=O)O)c1ccc(Cl)cc1NS(=O)(=O)c1cccc2nccnc12` ; field requested: bioavailability
Response line: 4%

* * *

experiment: Apparent permeability from apical to basolateral side in human Caco-2 cells; format: ADME, cell-based
assay metric: Papp A→B

Prompt line: Query (compound): `O=C(N[C@@H](Cc1ccc(F)c(Br)c1)C(=O)O)c1cc(Cl)c(Cl)cc1NS(=O)(=O)c1cccc2nccnc12` ; field requested: Papp A→B
Response line: 0.1 ×10⁻⁶ cm/s

Prompt line: Another compound to check: `O=C(N[C@@H](Cc1ccc(F)c(Br)c1)C(=O)O)c1ccc(Br)cc1NS(=O)(=O)c1cccc2nccnc12`
Response line: 0.03 ×10⁻⁶ cm/s

Prompt line: Another compound to check: `O=C(N[C@@H](Cc1ccc(F)c(Br)c1)C(=O)O)c1cc(Cl)c(Cl)cc1NS(=O)(=O)c1cccc2nsnc12`
Response line: 0.02 ×10⁻⁶ cm/s

Prompt line: Another compound to check: `O=C(N[C@@H](Cc1ccc(Cl)c(Br)c1)C(=O)O)c1ccc(Br)cc1NS(=O)(=O)c1cccc2nccnc12`
Response line: 0.1 ×10⁻⁶ cm/s

* * *

test: Metabolic stability in human liver microsomes assessed as compound remaining after 15 mins; format: ADME, Microsome; conditions: read-out: Stability
Returns: string. Value is Yes if measured remaining at 0.25 h is below 60%, and No if it is greater than or equal to it.

Look over these answered cases.
O=C(N[C@@H](Cc1ccc(F)c(Br)c1)C(=O)O)c1ccc(Cl)cc1NS(=O)(=O)c1cccc2nsnc12    No
O=C(N[C@@H](Cc1ccc(F)c(Br)c1)C(=O)O)c1ccc(Br)cc1NS(=O)(=O)c1cccc2nsnc12    Yes
O=C(N[C@@H](Cc1ccc(F)c(Br)c1)C(=O)O)c1ccc(Br)cc1NS(=O)(=O)c1cccc2nccnc12    Yes
O=C(N[C@@H](Cc1ccc(F)c(Br)c1)C(=O)O)c1ccc(Cl)cc1NS(=O)(=O)c1cccc2nccnc12    Yes
O=C(N[C@@H](Cc1ccc(F)c(Br)c1)C(=O)O)c1cc(Cl)c(Cl)cc1NS(=O)(=O)c1cccc2nccnc12    No
O=C(N[C@@H](Cc1ccc(F)c(Br)c1)C(=O)O)c1cc(Cl)c(Cl)cc1NS(=O)(=O)c1cccc2nsnc12    No

Prompt line: Please determine if `O=C(N[C@@H](Cc1ccc(Cl)c(Br)c1)C(=O)O)c1ccc(Br)cc1NS(=O)(=O)c1cccc2nccnc12` is below 60% in terms of remaining at 0.25 h.
Response line: No

* * *

experiment: Apparent permeability from basolateral to apical side in human Caco-2 cells; format: ADME, cell-based
Returns: string. Value is met if measured Papp B→A is below 10 nm/s, and not met if it is greater than or equal to it.

O=C(N[C@@H](Cc1ccc(F)c(Br)c1)C(=O)O)c1ccc(Br)cc1NS(=O)(=O)c1cccc2nccnc12    not met
O=C(N[C@@H](Cc1ccc(F)c(Br)c1)C(=O)O)c1cc(Cl)c(Cl)cc1NS(=O)(=O)c1cccc2nccnc12    not met
O=C(N[C@@H](Cc1ccc(Cl)c(Br)c1)C(=O)O)c1ccc(Br)cc1NS(=O)(=O)c1cccc2nsnc12    met
O=C(N[C@@H](Cc1ccc(Cl)c(Br)c1)C(=O)O)c1ccc(Br)cc1NS(=O)(=O)c1cccc2nccnc12    not met
O=C(N[C@@H](Cc1ccc(F)c(Br)c1)C(=O)O)c1ccc(Cl)cc1NS(=O)(=O)c1cccc2nsnc12    not met

Prompt line: Please determine if `O=C(N[C@@H](Cc1ccc(F)c(Br)c1)C(=O)O)c1ccc(Br)cc1NS(=O)(=O)c1cccc2nsnc12` is below 10 nm/s in terms of Papp B→A.
Response line: met

Prompt line: Another compound to check: `O=C(N[C@@H](Cc1ccc(F)c(Br)c1)C(=O)O)c1ccc(Cl)cc1NS(=O)(=O)c1cccc2nccnc12`
Response line: not met

Prompt line: Another compound to check: `O=C(N[C@@H](Cc1ccc(F)c(Br)c1)C(=O)O)c1cc(Cl)c(Cl)cc1NS(=O)(=O)c1cccc2nsnc12`
Response line: met
